Molecular target: T1, human CD3 on CD3+ Jurkat cells (human, UniProt P07766 23-207)
T1 construct: whole, on cells; Native CD3 complex on cells; the other CD3 chains are not specified for this assay; also called Human CD3+ Jurkat
T1 sequence (P07766 23-207): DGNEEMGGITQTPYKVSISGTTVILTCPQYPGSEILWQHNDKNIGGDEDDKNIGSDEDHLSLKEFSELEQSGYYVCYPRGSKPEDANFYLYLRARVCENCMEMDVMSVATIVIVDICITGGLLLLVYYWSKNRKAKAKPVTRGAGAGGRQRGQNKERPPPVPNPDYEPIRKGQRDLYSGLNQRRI
Experiment: flow cytometry on CD3+ Jurkat cells, ratio of MFI at pH 6.0 to pH 7.4
observable: MFI pH 6.0/MFI pH 7.4
Please reply with the number alone, leaving off any unit.

stdin: Fill blank: measured MFI pH 6.0/MFI pH 7.4 of the binder SAD10319_P01_H01 (ADI-48623) (antibody, V domains shown, IgG; also called Ab235) VH: QVQLVQSGAEVKKPGASVKVSCKASGYTFDDYAMHWVRQAPGQRLEWMGWIDAGTGDTKYSQKFQGRVTITRDTSASTAYMELSSLRSEDTAVYYCARDHYHRYFYDVWGQGTLVTVSS VL: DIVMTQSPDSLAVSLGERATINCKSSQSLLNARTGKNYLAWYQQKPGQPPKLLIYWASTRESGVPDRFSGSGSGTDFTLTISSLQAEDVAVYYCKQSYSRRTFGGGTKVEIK is ____.
stdout: 12

stdin: What about SAD10319_P04_E12 (ADI-48642) (antibody, V domains shown, IgG; also called Ab43) VH: QVQLVQSGAEVKKPGASVKVSCKASGYTFTSYPMHWVRQAPGQRLEWMGWIDAGTGLTTYSQKFQGRVTITRDTSASTAYMELSSLRSEDTAVYYCARDHYHRYFYDMWGQGTLVTVSS VL: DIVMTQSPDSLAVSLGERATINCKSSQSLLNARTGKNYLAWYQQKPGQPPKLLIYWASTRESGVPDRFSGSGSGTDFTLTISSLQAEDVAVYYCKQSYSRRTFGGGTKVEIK ?
stdout: 6.1

stdin: What about SAD10318_P04_C10 (ADI-48612) (antibody, V domains shown, IgG; also called Ab210) VH: QVQLVQSGAEVKKPGASVKVSCKASGFNIKDYYMHWVRQAPGQRLEWMGWIDLENANTIYDAKFQGRVTITRDTSASTAYMELSSLRSEDTAVYYCARDAYGRYHHDVWGQGTLVTVSS VL: DIVMTQSPDSLAVSLGERATINCKSSQSLLNARTGHNHLAWYQQKPGQPPKLLIYWASTRESGVPDRFSGSGSGTDFTLTISSLQAEDVAVYYCHQSYHRRTFGGGTKVEIK ?
stdout: 0.8

New cases:
stdin: Fill blank: measured MFI pH 6.0/MFI pH 7.4 of the binder SAD10320_P03_F09 (ADI-48656) (antibody, V domains shown, IgG; also called Ab101) VH: QVQLVQSGAEVKKPGASVKVSCKASGFNIKDYYMHWVRQAPGQRLEWMGWIDLENANTIYDAKFQGRVTITRDTSASTAYMELSSLRSEDTAVYYCARDAYGHDFYDVWGQGTLVTVSS VL: DIVMTQSPDSLAVSLGERATINCKSSQSLLNARTGKNYLAWYQQKPGQPPKLLIYWASTRESGVPDRFSGSGSGTDFTLTISSLQAEDVAVYYCKQSYHRRTFGGGTKVEIK is ____.
stdout: 4.9

stdin: What about SAD10319_P01_F03 (ADI-48627) (antibody, V domains shown, IgG; also called Ab246) VH: QVQLVQSGAEVKKPGASVKVSCKASGYTFESYDMHWVRQAPGQRLEWMGWINAGTGATVYSQKFQGRVTITRDTSASTAYMELSSLRSEDTAVYYCARDAYHHYFYDVWGQGTLVTVSS VL: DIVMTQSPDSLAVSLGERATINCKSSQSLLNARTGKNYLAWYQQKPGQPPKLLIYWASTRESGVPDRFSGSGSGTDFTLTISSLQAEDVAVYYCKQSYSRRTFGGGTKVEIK ?
stdout: 7.4
